Reported t1/2 by item:
biological target: T1, human PDGFRb.hFc (human); experiment: SPR, mAb captured, 37 C
T1 construct: Soluble dimeric construct with human Fc; also called hPDGFRb.hFc
measurement-type: t1/2 (min)

INSERT INTO results (binder, measurement_type, recorded_result) VALUES
  ('H4H3102S (antibody, human IgG4, V domains shown, human IgG4 Fc (H4H prefix)) VH: EVQLVESGGDLVHPGRSLRLSCVASGFTFDDYTMHWVRQAPGKGLEWVSAISWNGDNINYAGSVKGRFTISRDNAKNSLYLEMNSLRVEDTAFYYCAKGRGFSFGFNYLGQGTMVTVSS VL: AIRMTQSPSSLSASVGDRVTITCRASQDISNYLAWFQQQPGKAPKSLIYATSSLNSGVPSKFSGSGSGTDFTLTISSLQPEDFATYYCQQYKSYPLTFGGGTKVEIK', 't1/2', 36),
  ('H4H3104S (antibody, human IgG4, V domains shown, human IgG4 Fc (H4H prefix)) VH: QVQLVESGGGLVQPGGSLRLSCAAAGFTFSHYWMSWVRQAPGKGLEWVATIKKDGSERYYVDSVKGRFTISRDNARNSMYLEMNSLRTEDTAIYYCARDIVTPNTDYYFGMDVWGQGTTVTVSS VL: DIQLTQSPSTLSASVGDRVTITCRASQSFNNWLSWYQQKPGKAPKLLIYMASTLESGVPSRFSGSGSGTDFTLTINSLQPDDFATYYCQQSNSYSRTFGHGTKVEIK', 't1/2', 20),
  ('H4H3106S (antibody, human IgG4, V domains shown, human IgG4 Fc (H4H prefix)) VH: QVQLVESGGGLVQPGGSLRLSCAASGFTFSSYWMSWVRQVPGKGLEWVANMNQDGTEKYYVDSVKGRLTISRENVKNSLYLQMNGLRAEDTAVYYCARDLVPPRQGDYYYYFGMDVWGHGTMVTVSS VL: AIQMTQSPSTLSASVGDIVTITCRASQSISDWLAWYQQKPGKAPKLLIFKASSLESGVPSRFSGSGSGTDFTLTISSLQPDDFATYYCQQYNSYSRTFGQGTKVDIK', 't1/2', 16);
